Biological target: MBP-FoxP1dN (Mus musculus, UniProt P58462 326-579)
Sequence: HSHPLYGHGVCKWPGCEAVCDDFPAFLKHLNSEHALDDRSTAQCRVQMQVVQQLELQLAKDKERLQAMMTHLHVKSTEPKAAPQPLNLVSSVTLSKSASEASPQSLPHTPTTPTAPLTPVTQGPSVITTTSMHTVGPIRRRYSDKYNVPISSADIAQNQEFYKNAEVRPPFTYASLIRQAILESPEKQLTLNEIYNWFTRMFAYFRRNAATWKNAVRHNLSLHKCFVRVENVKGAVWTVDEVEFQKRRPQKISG
Experiment: PD-seq (MBP pull-down with sequencing); 20 mM Tris-HCl pH 7.5, 100 mM NaCl, 1.5 mM MgCl2, 0.4 uM protein, 0.1 uM dsDNA library, 30 min, room temperature, amylose pull-down; high values mean tight binding
Conditions: protein: recombinant; tags: His6-MBP; chain copies: 2; dsDNA, one strand shown
In all, about 16,000 sequences were measured (“rpm ratio (pull-down/input)”: median about 0.94, highest 2% from about 1.7 on). Shown is part of a subset that was picked to be rich in the highest values.
MEASURE NAME: binding signal

// recorded binding signal for GATGATTGTTCTCCCAGCTGATGAATTTGTTGTGTCGAGTAAACAAATTTTCCTAATCTTTCTGTTCAAGCGCCATCTAC : 2.48 RPM ratio (pull-down/input)

Consider GATGATTGTTCTCCCAGCTGATGAATTGGTCAATTCGAGTAAACAAATTTTCCTAATCTTTCTGTTCAAGCGCCATCTAC . Its measured binding signal is 1.08 RPM ratio (pull-down/input)

Recorded binding signal (sequence GATGATTGTTCTCCCAGCTGATGAATTGTTACCTTCGAGTAAACAAATTTTCCTAATCTTTCTGTTCAAGCGCCATCTAC ): 1.25 RPM ratio (pull-down/input)

Just so you know, measured binding signal for GATGATTGTTCTCCCAGCTGATGAATTTATTTCATCGAGTAAACAAATTTTCCTAATCTTTCTGTTCAAGCGCCATCTAC came out at 1.16 RPM ratio (pull-down/input)

binding signal for GATGATTGTTCTCCCAGCTGATGAATTCTTGTGTTCGAGTAAACAAATTTTCCTAATCTTTCTGTTCAAGCGCCATCTAC is 1.6 RPM ratio (pull-down/input)

# binding signal (sequence: GATGATTGTTCTCCCAGCTGATGAATTGTTGGTATCGAGTAAACAAATTTTCCTAATCTTTCTGTTCAAGCGCCATCTAC ) is 1.92 RPM ratio (pull-down/input)

Item: GATGATTGTTCTCCCAGCTGATGAATTGGTGTGGTCGAGTAAACAAATTTTCCTAATCTTTCTGTTCAAGCGCCATCTAC | binding signal: 1.04 RPM ratio (pull-down/input)

response.value for GATGATTGTTCTCCCAGCTGATGAATTTCTGTGTTCGAGTAAACAAATTTTCCTAATCTTTCTGTTCAAGCGCCATCTAC (field: binding signal) = 1.23 RPM ratio (pull-down/input)

The sequence listed as GATGATTGTTCTCCCAGCTGATGAATTTGCAAAATCGAGTAAACAAATTTTCCTAATCTTTCTGTTCAAGCGCCATCTAC has a reported binding signal of 1.13 RPM ratio (pull-down/input)

The value of binding signal measured for the sequence GATGATTGTTCTCCCAGCTGATGAATTGTGTTGTTCGAGTAAACAAATTTTCCTAATCTTTCTGTTCAAGCGCCATCTAC turned out to be 2.69 RPM ratio (pull-down/input)

Entry under test: GATGATTGTTCTCCCAGCTGATGAATTAGACTGATCGAGTAAACAAATTTTCCTAATCTTTCTGTTCAAGCGCCATCTAC . Its binding signal was 0.851 RPM ratio (pull-down/input)

The sequence GATGATTGTTCTCCCAGCTGATGAATTAGAAACTTCGAGTAAACAAATTTTCCTAATCTTTCTGTTCAAGCGCCATCTAC showed binding signal equal to 0.892 RPM ratio (pull-down/input)

Reported binding signal for GATGATTGTTCTCCCAGCTGATGAATTATCTACATCGAGTAAACAAATTTTCCTAATCTTTCTGTTCAAGCGCCATCTAC was 1.12 RPM ratio (pull-down/input)

Entry under test: GATGATTGTTCTCCCAGCTGATGAATTTATGGGATCGAGTAAACAAATTTTCCTAATCTTTCTGTTCAAGCGCCATCTAC . Its binding signal was 0.919 RPM ratio (pull-down/input)

Lookup result for GATGATTGTTCTCCCAGCTGATGAATTACCGGGCTCGAGTAAACAAATTTTCCTAATCTTTCTGTTCAAGCGCCATCTAC ; measured binding signal: 0.841 RPM ratio (pull-down/input)
